Below is a list of entries, each paired with its recorded Vd value.
Assay: Volume of distribution at steady state in Sprague-Dawley rat at 0.5 mg/kg, iv by LC-MS/MS analysis
Assay type: ADME, organism-based
Conditions: in vivo, read-out: Vdss

compound	Vd
CN1CCC[C@@H](NC(=O)c2cc(-c3ccc(C(F)(F)F)cc3)n(C)n2)C1	13.4 L/kg
CN(C)C1(CNC(=O)c2cc(-c3ccc(C(F)(F)F)cc3)n(C)n2)CCCC1	18.7 L/kg
CN1CCC(NC(=O)c2cc(-c3ccc(C(F)(F)F)cc3)n(C)n2)C1 (racemic)	18.5 L/kg
CN1CCC(NC(=O)c2cc(-c3ccc(C(F)(F)F)cc3)n(C)n2)CC1	25.7 L/kg
CN1[C@@H]2CCC[C@H]1C[C@H](NC(=O)c1cc(-c3ccc(C(F)(F)F)cc3)n(C)n1)C2	23.4 L/kg
CN1CCC[C@H](NC(=O)c2cc(-c3ccc(C(F)(F)F)cc3)n(C)n2)C1	13 L/kg
Cn1nc(C(=O)NCCN2CCCCC2)cc1-c1ccc(C(F)(F)F)cc1	29.8 L/kg
COc1ccc(-c2cc(C(=O)N[C@H]3CCCN(C)C3)nn2C)c(Cl)c1	12.3 L/kg
